protocol: qHTS Assay for Lipid Storage Modulators in Drosophila S3 Cells;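 for cell number change: cells counted by Cell Tracker Red CMTPX staining in the red channel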
applied.conditions: BODIPY lipid droplet fluorescence, 18-24 h, cells fed with added oleic acid; measured here: cell count max response
The whole screen tested about 320,000 compounds, of which about 2,100 (0.66%) were called active. Not shown: some 53% with an inconclusive outcome. Many of the other results were omitted from the sample, so actives are more common in it than they were.
The entries below are paired with their reported cell number change.
assay.endpoint: cell number change (%)

| compound | assay.endpoint | unit.tag | obs.value |
| --- | --- | --- | --- |
| CCOC(=O)C1=C(CS(=O)(=O)c2ccccc2)NC(=O)NC1c1cccc(OC)c1 (stereo unspecified) | cell number change | % | 15.2 |
| Cc1ccc(NNC(N)=S)cc1Cl | cell number change | % | 18.1 |
| CCC(C(=O)NC1CCCCC1)n1c(SCc2cccc(C)c2)nc2ccncc21 (stereo unspecified) | cell number change | % | -1.51 |
| COc1cccc(CNCC(O)COc2ccc(C(=O)c3ccccc3)cc2)c1 (stereo unspecified) | cell number change | % | -29.5 |
| CC(=O)N1CCN(S(=O)(=O)c2c(C)n(C)c(=O)n(C)c2=O)CC1 | cell number change | % | 5.18 |
| CC(SCc1ccccc1)C(=O)Nc1ccccc1-c1ccccc1 (stereo unspecified) | cell number change | % | 8.62 |

====

protocol: qHTS Assay for Lipid Storage Modulators in Drosophila S3 Cells;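 for cell number change: cells counted by Cell Tracker Red CMTPX staining in the red channel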
applied.conditions: BODIPY lipid droplet fluorescence, 18-24 h, cells fed with added oleic acid; measured here: cell count max response
Source text: NIH Molecular Libraries Probe Production Centers Network [MLPCN] NIH Chemical Genomics Center [NCGC] […] Triacsin C (Sigma-Aldrich T-4540), an inhibitor of long-chain fatty acyl CoA synthetase that blocks synthesis of triglycerides, was used as a positive control for lipid under-storage. […] Fluorescence was detected by excitation of the fluorophores with a 488-nm laser on an Acumen Explorer (TTP Lab Tech). […] Cells were detected using channel 3 (575-640 nm) with 5-um width and 100-um depth filters. […]
Screen size: about 320,000 compounds; about 2,100 (0.66%) were called active. About 53% were inconclusive and are not listed. The entries come from a sample that favours actives as a whole.
assay.endpoint: cell number change (%)

| compound | obs.value |
| --- | --- |
| O=C(c1ccc(NS(=O)(=O)c2cccc([N+](=O)[O-])c2)cc1)N1CCN(C(=O)c2ccco2)CC1 | 1.34 |
| COC(=O)c1ccc2c(=O)n(CCCCCC(=O)O)c(=S)[nH]c2c1 | 9.06 |
| CC(C)c1ccc(NC(=O)C(c2ccccc2)N2CCN(C(=O)c3ccco3)CC2)cc1 (stereo not given) | -35.1 |
| CC(C)C(=O)Nc1ccc(C(=O)N2CCN(C(=O)c3ccco3)CC2)cc1 | 6.86 |
| CCN(CC)CCCn1c(=S)[nH]c2cc(C(=O)OC)ccc2c1=O | 12.4 |

====

protocol: qHTS Assay for Lipid Storage Modulators in Drosophila S3 Cells;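 for cell number change: cells counted by Cell Tracker Red CMTPX staining in the red channel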
applied.conditions: BODIPY lipid droplet fluorescence, 18-24 h, cells fed with added oleic acid; measured here: cell count max response
In all, about 320,000 compounds went through this assay and about 2,100 (0.66%) were called active. Another 53% or so got no clear call; they are omitted. The full list was thinned out, with actives kept by preference.
Catalogue of cell number change values

| compound | unit.tag | cell number change |
| --- | --- | --- |
| Cc1cccc(NC(=S)N(CCc2ccncc2)C(C)C)c1C | % | -1.71 |
| O=[N+]([O-])c1ccc(-c2ccc(/C=N/Nc3nc(N4CCCC4)nc(N4CCCC4)n3)o2)cc1 | % | -13 |
| COc1ccc(S(=O)(=O)N2CCN(CC(=O)c3[nH]c(C)c(C(C)=O)c3C)CC2)cc1OC | % | 3.31 |
| CC(=O)c1ccccc1NC(=O)COC(=O)/C(=C/c1ccccc1)n1nnnc1C | % | -27.9 |
| O=C(NCC(c1ccccc1)N1CCCC1)C1CCN(C(=O)Nc2ccccc2)CC1 (stereo not drawn) | % | -22 |
| O=C(Cn1cnc2ccccc2c1=O)NCCC(=O)Nc1ccccc1C(F)(F)F | % | -3.75 |
| COc1nc(N/N=C/c2ccc(-c3cccc([N+](=O)[O-])c3)o2)nc(N2CCOCC2)n1 | % | -9.45 |
| CN1CCC(N(C)CC(O)c2ccccc2)CC1 (stereo not drawn) | % | -4.15 |
| Cc1nnnn1/C(=C\c1ccccc1)C(=O)OCC(=O)NC(C)(C)C | % | -11.4 |
| NS(=O)(=O)c1cccc(NC(=O)COC(=O)C2(c3cccc(F)c3)CCCC2)c1 | % | -1.45 |
| O=c1c(Cc2c(F)cccc2Cl)c(O)ccn1C1CC1 | % | 4.74 |
| Cc1ccc(C(=O)NCc2ccco2)cc1S(=O)(=O)N1CCCC1 | % | 15 |
| O=C(NCCN1CCOCC1)c1sc2ccccc2c1Cl | % | -1.8 |
| CN1[C@@H](CC(=O)c2ccccc2)CCC[C@H]1C[C@H](O)c1ccccc1 | % | 9.08 |
| CCN(CC)CC(=O)Nc1ccc(-c2nc3cc(NC(=O)CN(CC)CC)ccc3o2)cc1 | % | 0.429 |
| O=[N+]([O-])c1ccc(/C=N/Nc2nc(N3CCCCC3)nc(N3CCCCC3)n2)cc1 | % | -0.784 |
| O=C(NCCN1CCOCC1)c1sc2cc(Cl)ccc2c1Cl | % | -3.15 |
| COc1cccc(/C=C/C(=O)OCC(=O)c2c[nH]c3ccccc23)c1 | % | -14.3 |
| O=C(NCCCN1CCOCC1)c1sc2cc(Cl)ccc2c1Cl | % | 0.814 |
| CC/C(O)=C(/C#N)c1nnc2n1CCCCC2 | % | 8.5 |
| CC(C(=O)NCC1(c2ccccc2)CCCC1)N1CCOCC1 (stereo not drawn) | % | 9.07 |
| COc1ccc(/C=C/C(=O)OCC(=O)c2c[nH]c3ccccc23)cc1 | % | 4.45 |
| Cc1ccc(S(=O)(=O)Nc2nc3ccccc3nc2NCc2ccc3c(c2)OCO3)cc1C | % | -0.718 |
| O=[N+]([O-])c1ccc2c3n([n+]([O-])c2c1)CCN=C3c1ccc(Cl)cc1 | % | 12.6 |
| O=C1NC(c2ccc(Cl)cc2)Nc2ccccc21 (stereo not drawn) | % | -23.5 |
| CN(C)S(=O)(=O)c1cccc(NC(=O)COC(=O)C2(c3ccccc3F)CCCC2)c1 | % | -25.4 |
| CCC1CCCCN1CCCNC(=O)CCC(=O)N1CCOc2ccccc21 (stereo not drawn) | % | 10.7 |
| COc1cc(/C=C/C(=O)OCC(=O)c2c[nH]c3ccccc23)ccc1OC(F)F | % | -14.2 |
| COc1ccc(/C=N/NC(=O)Cn2nc([N+](=O)[O-])cc2C)c(OC)c1OC | % | 15.6 |
| Cc1noc(C)c1S(=O)(=O)N1CCC(C(=O)Nc2ccc(OC(F)(F)F)cc2)CC1 | % | -15.1 |
| COc1ccc(NC(=O)C2CCN(S(=O)(=O)c3c(C)noc3C)CC2)cc1OC | % | 0.165 |
| COc1ccc(-c2nc(SC(C)C(=O)Nc3ccc(NC(C)=O)cc3)n[nH]2)cc1 (stereo not drawn) | % | 32.4 |
| COc1ccc(C2=NCCn3nc4cc(OC)ccc4c32)cc1 | % | -20.7 |
| COc1ccc(-c2nc(SCC(=O)NC3CCCCC3)n[nH]2)cc1 | % | -21.7 |
| Cc1cn(Cc2ccccc2)c(=O)[nH]c1=O | % | -5.94 |
| CC(=O)NS(=O)(=O)c1ccc(NC(=O)c2cc3c(=O)n4ccccc4nc3s2)cc1 | % | 21.8 |
| O=C(Cn1cnc2ccccc2c1=O)NCCC(=O)Nc1ccc(F)cc1 | % | 20.1 |
| CCOC(=O)c1c(-c2ccccc2)csc1NC(=O)CSc1nc(N)cc(N)n1 | % | 11.6 |
| c1ccc(CCNc2nc3ccccc3n3nnnc23)cc1 | % | -15.6 |
| O=C(NCCc1ccccc1)C1CCN(C(=O)Nc2ccccc2)CC1 | % | -33.1 |
| C=CCOC(=O)C1=C(C)NC(=O)NC1c1cc2c(cc1Br)OCO2 (stereo not drawn) | % | -17.1 |
| CC(=O)c1ccccc1NC(=O)COC(=O)c1c(C)nn(-c2ccccc2)c1C | % | -19.3 |
| CCOC(=O)Cc1nnc(NC(=O)CSc2ccc(C)cc2)s1 | % | 10.4 |

====

protocol: qHTS Assay for Lipid Storage Modulators in Drosophila S3 Cells
applied.conditions: BODIPY lipid droplet fluorescence, 18-24 h, cells fed with added oleic acid; series mostly up to 46.1 µM
Text: NIH Molecular Libraries Probe Production Centers Network [MLPCN] NIH Chemical Genomics Center [NCGC] […] Triacsin C (Sigma-Aldrich T-4540), an inhibitor of long-chain fatty acyl CoA synthetase that blocks synthesis of triglycerides, was used as a positive control for lipid under-storage. […] Fluorescence was detected by excitation of the fluorophores with a 488-nm laser on an Acumen Explorer (TTP Lab Tech). […] Cells were detected using channel 3 (575-640 nm) with 5-um width and 100-um depth filters. […]
The whole screen tested about 320,000 compounds, of which about 2,100 (0.66%) were called active. About 53% were inconclusive and are not listed. Calls come from the whole dose curve; as a rule, active = well fitted inhibition curve with a large enough effect in the signal ratio, with a control signal flat (not every such curve was filed as active); inconclusive = small, poorly fitted or top-dose-only effect, or effect the other way, or a change in a side signal; inactive = flat fitted curve, though single readings scatter; the % refers to the signal ratio. The sample holds actives, similar compounds and a random draw of the others, so the mix is not that of the screen.
Classes used: label 1 = active, label 0 = inactive

| compound | classification |
| --- | --- |
| COc1ccc(NC(=O)C2CCCN(S(=O)(=O)c3cccnc3)C2)c(OC)c1 (stereo unspecified) | label 0 |
| COc1ccc(CCNC(=O)C2CCN(C(=O)c3ccc(Br)cc3)CC2)cc1 | label 1 |
| COc1ccc(Br)cc1C(=O)O | label 0 |
| COc1cc(N)c(Br)cc1C(=O)O | label 0 |
| COc1c(Br)cc(Br)cc1C(=O)O | label 1 |
| COc1ccc(CCNC(=O)C2CCN(C(=O)c3ccc(Cl)cc3)CC2)cc1 | label 0 |
